# credit: PubChem BioAssay AID623866

measured target: Tyrosine-protein phosphatase non-receptor type 5 (Homo sapiens) (UniProt P54829)
Sequence (P54829 whole entry, looked up): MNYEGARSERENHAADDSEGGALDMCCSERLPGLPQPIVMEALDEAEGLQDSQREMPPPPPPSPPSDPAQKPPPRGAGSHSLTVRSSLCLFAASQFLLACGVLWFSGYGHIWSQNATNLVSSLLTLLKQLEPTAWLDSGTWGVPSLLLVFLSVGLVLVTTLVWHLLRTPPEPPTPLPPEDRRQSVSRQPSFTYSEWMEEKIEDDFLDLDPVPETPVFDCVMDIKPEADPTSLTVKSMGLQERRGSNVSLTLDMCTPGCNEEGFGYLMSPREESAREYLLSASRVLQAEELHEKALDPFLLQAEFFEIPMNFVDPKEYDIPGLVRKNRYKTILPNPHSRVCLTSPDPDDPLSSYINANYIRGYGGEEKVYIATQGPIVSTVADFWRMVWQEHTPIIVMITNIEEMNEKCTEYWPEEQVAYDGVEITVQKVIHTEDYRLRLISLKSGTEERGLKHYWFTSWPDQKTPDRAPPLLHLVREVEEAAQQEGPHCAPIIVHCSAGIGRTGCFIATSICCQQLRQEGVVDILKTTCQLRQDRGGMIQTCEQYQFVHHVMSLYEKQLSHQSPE
assay: STEP phosphatase inhibitor hit confirmation, biochemical, fluorescence intensity, single concentration (AID 623866);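 further: 0% = enzyme with substrate plus DMSO and 100% = substrate without enzyme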
test parameters: recombinant STEP, OMFP fluorogenic substrate, at 20 µM
The other results are listed elsewhere or left out. Calls of active or inactive are those of the source. How the calls were made is not given here.
Select the correct class. Options are active, inactive and nothing else.

Exam item: Each compound tested received a call. Report the one for Cc1ccc(S(=O)(=O)c2c[nH]c3ccc(Cl)cc3c2=O)cc1 .
Marked response: active

Exam item: Returns: the outcome recorded for Cc1ccc(CNC(=O)CSc2nnc3c(n2)[nH]c2ccc(F)cc23)cc1 in this assay.
Marked response: inactive

Exam item: Could you check what this test reported for N#Cc1c(-c2cccs2)nc(SCC(=O)c2ccc(Br)cc2)[nH]c1=O ?
Marked response: active

Exam item: Assay result, entry C/C(=N\Nc1ccc(S(N)(=O)=O)cc1[N+](=O)[O-])c1cccs1 — outcome?
Marked response: active

Exam item: Dear colleague, could you share the recorded outcome for Cc1c(CCC(=O)O)c(=O)oc2c(C)c(OCc3ccccc3Cl)ccc12 when you have a moment?
Marked response: active

Exam item: Called result for COc1ccc2[nH]c(=O)c(-c3noc(-c4ccc(F)cc4)n3)cc2c1
Marked response: inactive

Exam item: How was CCCS(=O)(=O)N1CCCC(C(=O)NCc2ccco2)C1 (stereo unspecified) classified in this test?
Marked response: inactive

Exam item: Please indicate how the test categorized O=C(COc1cccc(F)c1)Oc1ccc(C(=O)c2ccccc2)cc1 .
Marked response: inactive

Exam item: Hi team, can someone confirm the assay call for Cc1ccc(OCC(=O)Nc2ccc(-c3nc4ncccc4o3)cc2)cc1 ?
Marked response: inactive

Exam item: Per the assay record, what outcome was assigned to O=C(CSC(=S)N1CCCCC1)c1c(F)cccc1F ?
Marked response: inactive

Exam item: Field: outcome | Entry: Cc1cc(C(=O)N2CCN(c3ccccn3)CC2)c(C)o1
Marked response: inactive

* * *

measured target: Tyrosine-protein phosphatase non-receptor type 5 (Homo sapiens)
assay: STEP phosphatase inhibitor hit confirmation, biochemical, fluorescence intensity, single concentration (AID 623866);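 further: 0% = enzyme with substrate plus DMSO and 100% = substrate without enzyme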
test parameters: recombinant STEP, OMFP fluorogenic substrate, at 20 µM
This is one part of the list. Calls of active or inactive are those of the source. The rule behind the calls is not given here.
Permitted responses: 1.0 = active, 0.0 = inactive

Exam item: Outcome logged for Cc1ccn2c(-c3csc(Nc4ccc(C(=O)O)cc4)n3)c(C)nc2c1 in this assay:
Marked response: 0.0

Exam item: So what was the verdict on Nc1c(Cl)cc(-c2csc(N3CCCC3c3nc4cc(Cl)c(Cl)cc4n3CCOCCO)n2)cc1Cl (centres undefined) in this test?
Marked response: 0.0

Exam item: What did this assay record as the result for O=C(Nc1cccnc1)c1cc2cc(Br)ccc2oc1=O ?
Marked response: 0.0

Exam item: // outcome(item) with item = O=C(N/N=C/c1cccc(Br)c1)c1ccc(N2CCCC2=O)cc1
Marked response: 1.0
